target_or_test_system: Streptokinase A (Streptococcus pyogenes serotype M1)
Sequence (P10520 whole entry): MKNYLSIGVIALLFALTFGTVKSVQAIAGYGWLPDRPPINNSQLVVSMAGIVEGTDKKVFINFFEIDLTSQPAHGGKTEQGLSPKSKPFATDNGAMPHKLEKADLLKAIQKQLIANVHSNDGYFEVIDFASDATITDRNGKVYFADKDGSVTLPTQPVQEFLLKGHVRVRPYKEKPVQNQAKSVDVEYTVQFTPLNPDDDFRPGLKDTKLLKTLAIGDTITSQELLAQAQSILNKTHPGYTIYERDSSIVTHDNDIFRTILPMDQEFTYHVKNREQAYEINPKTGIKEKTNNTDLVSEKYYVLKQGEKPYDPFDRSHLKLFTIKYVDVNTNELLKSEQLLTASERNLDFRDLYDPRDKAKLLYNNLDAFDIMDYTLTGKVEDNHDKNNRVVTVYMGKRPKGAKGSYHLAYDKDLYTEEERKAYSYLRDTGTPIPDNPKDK
measurement_protocol: viability-normalized secreted streptokinase activity reduction – plasminogen activation absorbance, OD405, dose response (AID 1914);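 note: secreted streptokinase activity via plasminogen activation per viability signal from cell pellet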
Type: functional, Streptococcus pyogenes M1 GAS
Active and inactive are the calls of the source. Cut-off read from the data, not from the text of the source: actives have a measured EC50 and inactives only a lower limit.
Measured EC50 accompanies every entry in the list below.
value_kind: EC50

# compound, reported
data = [
    ("CCN1C(=O)/C(=C\\c2ccc(-c3ccc([N+](=O)[O-])cc3OC)o2)S/C1=N\\c1cccc(C(=O)O)c1", "> 150 µM (not active)"),
    ("COc1ccccc1-n1cnc2c(c1=O)c1nc3ccccc3nc1n2-c1ccc(C)c(C)c1", "> 150 µM (not active)"),
    ("COc1cc(/C=C/C(=O)OC2CC3CCC2(C)C3(C)C)ccc1O (stereo not given)", "7.32 µM (active)"),
    ("O=C(/C=C/c1ccc([N+](=O)[O-])o1)NNC(=O)c1ccc(F)cc1", "13.9 µM (active)"),
    ("Cc1cc(=O)c(C(=O)O)cn1Nc1ccc(Cl)cc1", "> 150 µM (not active)"),
    ("CC(C)N1CCc2c(sc(NC(=O)c3ccc(S(=O)(=O)N(C)CC4CCCO4)cc3)c2C(N)=O)C1 (stereo not given)", "> 150 µM (not active)"),
    ("COc1cccc(-c2cc(C(F)(F)F)nc(N3CCCCC3)n2)c1", "4.92 µM (active)"),
    ("Cc1cccc(N2CCN(C(=O)C34CC5CC(CC(C5)C3)C4)CC2)c1C", "15.2 µM (active)"),
    ("O=c1c2cc(N3CCOCC3)ccc2[nH]c(=S)n1CCc1ccccc1", "> 150 µM (not active)"),
    ("Cc1ccc(C)c(C(=O)COC(=O)c2cc(Cl)nc3ccccc23)c1", "19.4 µM (active)"),
]
